Numbers sourced from ChEMBL document CHEMBL3407477.

- system-name: Mu-type opioid receptor (Rattus norvegicus, UniProt P33535)
- Sequence (P33535 whole entry): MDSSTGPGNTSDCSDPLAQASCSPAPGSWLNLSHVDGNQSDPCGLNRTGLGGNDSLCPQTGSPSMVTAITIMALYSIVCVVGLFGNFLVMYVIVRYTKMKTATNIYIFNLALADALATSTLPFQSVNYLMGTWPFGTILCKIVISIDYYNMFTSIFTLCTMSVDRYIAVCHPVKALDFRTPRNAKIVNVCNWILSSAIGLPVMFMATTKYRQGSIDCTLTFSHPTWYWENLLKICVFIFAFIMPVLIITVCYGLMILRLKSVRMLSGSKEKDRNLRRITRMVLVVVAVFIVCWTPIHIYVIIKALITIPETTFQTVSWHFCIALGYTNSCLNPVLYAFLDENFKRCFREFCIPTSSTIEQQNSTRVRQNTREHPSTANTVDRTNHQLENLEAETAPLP
measure: Ki (nM)
Give a bare numeral; the unit nM is implied.

# count of solved cases: 3
chemical-smiles: Cc1cc(O)cc(C)c1C[C@H](N)C(=O)N[C@H](CCCNC(N)=O)C(=O)N[C@H]1Cc2ccccc2CN(CCC(=O)N(C)Cc2ccccc2)C1=O
Ki, nM: 0.28

chemical-smiles: Cc1cc(O)cc(C)c1C[C@H](N)C(=O)N[C@H](CCCNC(=N)N)C(=O)N[C@H]1Cc2ccccc2CN(CC(=O)NCc2ccccc2)C1=O
Ki, nM: 0.14

chemical-smiles: Cc1cc(O)cc(C)c1C[C@H](N)C(=O)N[C@H](CCCNC(=N)N)C(=O)N[C@H]1Cc2ccccc2CN(CCC(=O)N(C)Cc2cc(C(F)(F)F)cc(C(F)(F)F)c2)C1=O
Ki, nM: 0.08

Could you now consider this next compound?
Task: # get_value(readout='Ki', item= `Cc1cc(O)cc(C)c1C[C@H](N)C(=O)N[C@H](CCCNC(N)=O)C(=O)N[C@H]1Cc2ccccc2CN(CCC(=O)N(C)Cc2cc(C(F)(F)F)cc(C(F)(F)F)c2)C1=O` )
Result: 0.37
